From: ChEMBL document CHEMBL2385071

measured_target: Histamine H1 receptor (Cavia porcellus)
Sequence (P31389 whole entry): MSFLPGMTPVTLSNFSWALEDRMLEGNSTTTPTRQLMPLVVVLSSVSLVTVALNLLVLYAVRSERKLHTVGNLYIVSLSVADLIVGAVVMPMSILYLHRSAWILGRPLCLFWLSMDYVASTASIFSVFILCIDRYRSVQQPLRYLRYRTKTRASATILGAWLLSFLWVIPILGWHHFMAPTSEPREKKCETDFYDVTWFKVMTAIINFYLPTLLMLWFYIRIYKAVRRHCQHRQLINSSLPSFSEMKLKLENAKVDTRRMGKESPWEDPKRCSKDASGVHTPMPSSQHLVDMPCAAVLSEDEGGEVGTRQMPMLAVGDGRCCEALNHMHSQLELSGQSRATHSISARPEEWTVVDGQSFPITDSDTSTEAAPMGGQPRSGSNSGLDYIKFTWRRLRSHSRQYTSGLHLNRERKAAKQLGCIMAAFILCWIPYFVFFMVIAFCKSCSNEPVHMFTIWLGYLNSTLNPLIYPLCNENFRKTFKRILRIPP
recorded_endpoint: Ki (µM)
// note: answer is a bare numeric in µM

I have this compound here, Cc1cc(=O)oc2c(Cl)c(OCCCCN3CCC(c4noc5cc(F)ccc45)CC3)ccc12 , and I need its recorded Ki.
1.13

* * *

measured_target: 5-hydroxytryptamine receptor 1A (Rattus norvegicus, UniProt P19327)
Sequence (P19327 whole entry): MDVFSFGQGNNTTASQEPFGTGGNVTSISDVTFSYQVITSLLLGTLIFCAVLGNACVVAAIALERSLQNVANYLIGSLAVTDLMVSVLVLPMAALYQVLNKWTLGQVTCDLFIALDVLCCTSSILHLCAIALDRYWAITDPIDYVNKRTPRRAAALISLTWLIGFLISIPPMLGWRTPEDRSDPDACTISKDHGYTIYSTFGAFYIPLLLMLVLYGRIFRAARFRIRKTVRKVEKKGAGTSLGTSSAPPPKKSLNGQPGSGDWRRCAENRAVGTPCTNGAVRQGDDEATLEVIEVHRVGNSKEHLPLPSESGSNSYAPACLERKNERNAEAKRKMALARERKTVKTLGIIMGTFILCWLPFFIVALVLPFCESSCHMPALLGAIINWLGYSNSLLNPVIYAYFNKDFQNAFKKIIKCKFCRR
measurement_description: biochemical
Description: Displacement of [3H]8-OH-DPAT from 5HT1A receptor in rat cerebral cortex after 30 mins by liquid scintillation counting analysis
recorded_endpoint: pKi
Conceptually, pKi converts a concentration in mol/L into minus its log10.

For the compound shown here, Cc1cc(OCCCCN2CCC(c3noc4cc(F)ccc34)CC2)cc2oc(=O)cc(C)c12 , give the reported pKi.
7.72

Now consider Cc1c(C)c2ccc(OCCCCN3CCC(c4noc5cc(F)ccc45)CC3)c(C)c2oc1=O .
5.51
